Could you please report measured MFI for the items listed next?
molecular target: T1, human LILRB1 (human, UniProt Q8NHL6 24-650); assay: FACS, 293F-hLILRB1 cells
T1 construct: whole, on cells; also called hLILRB1
T1 sequence (Q8NHL6 24-650): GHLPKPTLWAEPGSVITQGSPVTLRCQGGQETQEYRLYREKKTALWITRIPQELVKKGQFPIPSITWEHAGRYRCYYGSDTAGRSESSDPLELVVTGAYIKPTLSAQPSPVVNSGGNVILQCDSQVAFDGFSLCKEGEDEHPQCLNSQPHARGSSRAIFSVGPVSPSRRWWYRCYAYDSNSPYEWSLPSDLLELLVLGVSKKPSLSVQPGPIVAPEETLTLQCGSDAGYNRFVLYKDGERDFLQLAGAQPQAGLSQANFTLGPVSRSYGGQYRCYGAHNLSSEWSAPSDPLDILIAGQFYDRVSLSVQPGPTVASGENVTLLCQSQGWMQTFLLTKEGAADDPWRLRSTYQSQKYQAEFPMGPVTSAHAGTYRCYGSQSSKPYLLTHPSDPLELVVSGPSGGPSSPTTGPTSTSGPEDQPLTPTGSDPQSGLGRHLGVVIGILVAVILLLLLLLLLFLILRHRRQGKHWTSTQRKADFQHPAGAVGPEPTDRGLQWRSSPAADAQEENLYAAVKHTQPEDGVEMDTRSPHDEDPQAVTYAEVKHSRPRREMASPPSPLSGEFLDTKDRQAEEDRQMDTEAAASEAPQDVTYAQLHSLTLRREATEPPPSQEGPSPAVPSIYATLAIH
Include the unit after the number when you answer.

Returns the measured MFI for the input binder. Input: 25-G9-G4-C12 (antibody, V domains shown, mouse monoclonal hybridoma antibody) VH: EVQLVESGGDLVKPGGSLKLSCAASGFTFSSHGMSWVRQTPDKRLEWVATINSGGYYTYYPDSVKGRFTISRDNAKNTLYLQMSSLKSEDTAMYYCARGQLGNWYFDVWGAGTTVTVSS VL: DIVMTQSPAIMSASPGEKVTITCSASSSVSYMHWFQQKPGTSPKLWIYSTSNLASGVPARFSGSGSGTSYSLTISRMEAEDAATYYCQQRSSYPLTFGAGTKLELK
26 MFI

And what about the binder 10-H9-E3-G3 (antibody, V domains shown, mouse monoclonal hybridoma antibody) VH: EVQRVESGGGLVQPGGSRKLSCAASGFTFSSFGMHWVRQAPEKGLEWVAYISSGSSAMYYADTVKGRFTISRDNPKNTLFLQMTSLRSEDTAMYYCARSDGKGAMDYWGQGTSVTVSS VL: DIQMTQTTSSLSASLGDRVTISCRASQDISNYLNWYQQKPDGTVKLLVYYTSRLHSGVPSRFSGSGSGTDYSLTISNLEQEDIATYFCQQGNTLPWTFGGGTKLEIK ?
21 MFI
